Reported kcat/KM values for a set of proteins
target: Factor X (FX), P00742
Sequence (P00742 whole entry, looked up): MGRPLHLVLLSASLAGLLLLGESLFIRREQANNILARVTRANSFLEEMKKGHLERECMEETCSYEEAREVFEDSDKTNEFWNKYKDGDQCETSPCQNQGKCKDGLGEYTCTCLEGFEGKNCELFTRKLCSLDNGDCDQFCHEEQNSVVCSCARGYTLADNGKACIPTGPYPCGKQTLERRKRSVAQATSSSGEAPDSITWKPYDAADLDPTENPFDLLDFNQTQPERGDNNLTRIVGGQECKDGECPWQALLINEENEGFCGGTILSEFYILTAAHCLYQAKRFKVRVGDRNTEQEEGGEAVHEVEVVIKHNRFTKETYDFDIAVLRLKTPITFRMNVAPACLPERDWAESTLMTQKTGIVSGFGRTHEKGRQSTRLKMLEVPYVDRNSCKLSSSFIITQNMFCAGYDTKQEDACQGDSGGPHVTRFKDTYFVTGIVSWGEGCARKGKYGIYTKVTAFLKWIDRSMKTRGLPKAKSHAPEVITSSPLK
Field: numeric (M⁻¹ s⁻¹). Do not append units.

Enquiry: Return reported kcat/KM; argument: FIXa-Y155F/K247N/N249S/R403E/E410N (protein) chain 1: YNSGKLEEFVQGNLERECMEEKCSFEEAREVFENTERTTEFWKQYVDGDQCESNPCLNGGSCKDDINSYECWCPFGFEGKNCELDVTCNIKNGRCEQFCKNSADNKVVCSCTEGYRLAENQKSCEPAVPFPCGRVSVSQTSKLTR chain 2: VVGGEDAKPGQFPWQVVLNGKVDAFCGGSIVNEKWIVTAAHCVETGVKITVVAGEHNIEETEHTEQNRSVIRIIPHHNYNAAINKYNHDIALLELDEPLVLNSYVTPICIADKEYTNIFLKFGSGYVSGWGRVFHKGRSALVLQYLRVPLVDRATCLRSTKFTIYNNMFCAGFHEGGRDSCQGDSGGPHVTEVEGTSFLTGIISWGEECAMKGKYGIYTKVSEYVNWIKNKTKLT
Return: 2.4e+07

Enquiry: Return reported kcat/KM; argument: FIXa-R318Y/R338E/R403E/E410S (protein) chain 1: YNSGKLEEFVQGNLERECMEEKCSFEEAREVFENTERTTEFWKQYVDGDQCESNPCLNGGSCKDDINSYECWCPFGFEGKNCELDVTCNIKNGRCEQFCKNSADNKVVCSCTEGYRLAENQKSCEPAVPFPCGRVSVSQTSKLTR chain 2: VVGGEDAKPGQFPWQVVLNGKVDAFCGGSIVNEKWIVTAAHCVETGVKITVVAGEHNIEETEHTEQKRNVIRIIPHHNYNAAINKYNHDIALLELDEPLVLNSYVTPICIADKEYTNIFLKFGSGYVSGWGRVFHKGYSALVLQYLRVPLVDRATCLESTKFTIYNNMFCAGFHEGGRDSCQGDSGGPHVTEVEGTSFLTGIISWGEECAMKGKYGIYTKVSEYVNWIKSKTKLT
Return: 2.1e+08

The reported measurements were obtained from patent US20210230570.
